Please go through the items and note down their OD450.
Biological target: T1, BCMA-Fc (human, UniProt Q02223 1-54)
T1 construct: coating antigen, 1 ug/mL; also called Fc-conjugated human BCMA; not shown: Fc
T1 sequence (looked up): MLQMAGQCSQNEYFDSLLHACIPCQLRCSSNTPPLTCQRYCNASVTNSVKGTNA
Assay: ELISA, BCMA-Fc coated 1 ug/mL
Your answer is read as OD450, so omit the unit and give the number.

Fill in the blank: the reported OD450 of NBL507-A2L1-P1R2-1H1-(275)-PME207-SEQF_G11 (VHH, purified VHH) VHH: QVQLVESGGGLVHPGGSLRLACAASERILSFNVMGWYRQAPGQQREVVATITSVGRTYYADSVKGRFTIFKDNGKNTYLQMSSLKPEDTAVYYCKAVTVGDVDTEYWGQGTQVTVSS is ____. 3.3

Looking for the measured OD450 of NBL507-A1L1-P1R2-1E2-(10)-PME207-SEQF_B02 (VHH, purified VHH) VHH: EVQLVESGGGLVQPGGSLRLSCAASGSISSIYAMGWYRQAPGKLRELVAAITTGGSTFYRDSVKGRFTISRDNVANTVYLQMNSLKPEDTAVYHCNGAPWGDIAPVAVSWGQGTQVTVSS , can you help? 2.53

So what does the record say about OD450 for NBL507-A2L1-P1R2-1C1-(273)-PME207-SEQF_E11 (VHH, purified VHH) VHH: QVQLVESGGGLVHPGGSLRLDCAVSERIASFNVMGWYRQAPGQQREVVATITSVGRTYYADSVKGRFTIAKDNDKNTYLQMNSLKPEDTAVYYCKAVIVGTYDTEYWGQGTLVTVSS ? 3.12

What value of OD450 has been reported for the following binder? NBL507-A1L1-P1R2-1B8-(44)-PME207-SEQF_D06 (VHH, purified VHH) VHH: QVQLVESGGGLVQPEGSLRLSCAASGSIFSIYAMGWYRQAPGKQRGLVAAITSGGDTFYADSVKGRFTISRDNARNTVYLQMNNLKSEDTAVYDCNGAPWGDHAPLVASWGQGTQVTVSS 2.47

Returns the measured OD450 for the input binder. Input: NBL507-A1L1-P1R2-1D2-(9)-PME207-SEQF_A02 (VHH, purified VHH) VHH: QVQLVESGGGLVQPGGSLRLSCAASGFTFSSSAMSWARQAPGKGLECVSDIYPDGTSSYADSMKGRFTISRDNTRNTMYLQMNVLKPEDTATYYCVIGRGGYAMGDRRLRGQGTQVTVSS 2.35

Measured values drawn from patent US20230002757A1 for this set.
